Assay: qHTS of pediatric cancer cell lines to identify multiple opportunities for drug repurposing: Primary screen for BT-37 cells (AID 1347094)
Settings: BT-37 viability, CellTiter-Glo luminescence, 48 h; series mostly up to 57.3 µM
Inconclusive results are not listed. Calls of active or inactive are those of the source. Calls follow the shape of the dose curve; as a rule, active = well fitted cell-killing curve with a large enough effect; inconclusive = small, poorly fitted or top-dose-only effect; inactive = flat fitted curve, though single readings scatter.
Bench note: report the call from True (active), False (inactive)

Please state the recorded outcome for this molecule: `OC[C@H]1O[C@@H](O[C@@H]2[C@@H](CO)O[C@](O)(CO)[C@H]2O)[C@H](O)[C@@H](O)[C@H]1O`
False

Please state the recorded outcome for this molecule: CC(C)(C(=O)O)c1ccc(C(O)CCCN2CCC(C(O)(c3ccccc3)c3ccccc3)CC2)cc1 (stereo unspecified)
False

Please state the recorded outcome for this molecule: `CC(C)(C)C(=O)NCCCC(=O)O`
False

Please state the recorded outcome for this molecule: `O=C(O)c1ccccn1`
False

Please state the recorded outcome for this molecule: `CCOc1ccc2ccccc2c1C(=O)N[C@@H]1C(=O)N2[C@@H]1SC(C)(C)[C@@H]2C(=O)O`
False

Please state the recorded outcome for this molecule: CCCCCCCCCCCCCCCCCCOCC(O)CO (stereo unspecified)
False

Please state the recorded outcome for this molecule: `CCN(CC)CCNC(=O)c1c(C)[nH]c(/C=C2\C(=O)Nc3ccc(F)cc32)c1C`
True

Please state the recorded outcome for this molecule: NS(=O)(=O)c1cc2c(cc1C(F)(F)F)NC(Cc1ccccc1)NS2(=O)=O (stereo unspecified)
False

Please state the recorded outcome for this molecule: `CN(C)CC[C@@H](c1ccc(Cl)cc1)c1ccccn1`
False

Please state the recorded outcome for this molecule: `Nc1nc2c(ncn2CCC(CO)CO)c(=O)[nH]1`
False

Please state the recorded outcome for this molecule: `O=C(CCCN1CCN(c2ccccn2)CC1)c1ccc(F)cc1`
False
